target: Alpha-2C adrenergic receptor (Homo sapiens); assay: Alpha-2C adrenergic receptor agonism measured as ability to inhibit forskolin-stimulated synthesis of cAMP; assay type: functional
Sequence (P18825 whole entry): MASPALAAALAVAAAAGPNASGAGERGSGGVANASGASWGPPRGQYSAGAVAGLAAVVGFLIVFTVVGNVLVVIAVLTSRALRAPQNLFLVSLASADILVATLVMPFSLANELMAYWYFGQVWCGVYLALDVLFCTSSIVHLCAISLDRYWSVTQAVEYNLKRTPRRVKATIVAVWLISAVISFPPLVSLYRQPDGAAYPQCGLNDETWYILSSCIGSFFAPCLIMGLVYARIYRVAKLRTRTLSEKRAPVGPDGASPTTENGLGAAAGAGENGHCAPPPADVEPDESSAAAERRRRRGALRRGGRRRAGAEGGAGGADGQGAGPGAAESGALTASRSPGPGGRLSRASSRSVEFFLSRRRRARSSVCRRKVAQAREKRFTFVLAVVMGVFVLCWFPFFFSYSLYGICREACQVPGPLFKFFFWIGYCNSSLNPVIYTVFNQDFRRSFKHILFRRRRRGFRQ
Measurement Name: EC50
Please append the unit to your numeric answer.

*Q* Fill in the blank: the reported EC50 of CCC[C@H]1CCCC[C@@H]1NC1=NCCO1 is ____.
*A* 4.07 nM

----------
molecular target: Alpha-2C adrenergic receptor (Homo sapiens); assay: Inhibitory constant, using [3H]rauwolscine in LM(tk-) cells stably transfected with cloned human Alpha-2C adrenergic receptor; format: cell-based
Measurement Name: Ki (nM)
Could you give me the number in nM? Just the number is fine.

*Q* # query: Ki of entry c1ccc(C[C@H]2CCCC[C@@H]2NC2=NCCO2)cc1
*A* 66.1

*Q* Try this compound next: c1ccc(CCC[C@H]2CCCC[C@@H]2NC2=NCCO2)cc1
*A* 32.4

----------
EC50 values, listed per item
biological target: Alpha-2C adrenergic receptor (Homo sapiens); experiment: Alpha2c receptor agonism measured as ability to inhibit forskolin-stimulated synthesis of cAMP; type: functional

Some entries whose results are on file:
Compound	EC50
c1ccc(CCC[C@H]2C3CCC(C3)[C@H]2NC2=NCCO2)cc1 (stereo not given in full)	60.3 nM
C(=C\c1ccccc1)/C[C@H]1C2CCC(C2)[C@H]1NC1=NCCO1 (stereo not given in full)	2 nM
c1ccc(CCC[C@H]2CCCC[C@@H]2NC2=NCCO2)cc1	26.9 nM

*Q* Recorded EC50 of c1ccc(C[C@H]2C3CCC(C3)[C@H]2NC2=NCCO2)cc1 (stereo not given in full) , please.
*A* 13.8 nM

*Q* Same thing, different compound: CCC[C@H]1C2CCC(C2)[C@H]1NC1=NCCO1 (stereo not given in full)
*A* 21.4 nM

----------
Molecular target: Alpha-2A adrenergic receptor (Homo sapiens)
Sequence (P08913 whole entry): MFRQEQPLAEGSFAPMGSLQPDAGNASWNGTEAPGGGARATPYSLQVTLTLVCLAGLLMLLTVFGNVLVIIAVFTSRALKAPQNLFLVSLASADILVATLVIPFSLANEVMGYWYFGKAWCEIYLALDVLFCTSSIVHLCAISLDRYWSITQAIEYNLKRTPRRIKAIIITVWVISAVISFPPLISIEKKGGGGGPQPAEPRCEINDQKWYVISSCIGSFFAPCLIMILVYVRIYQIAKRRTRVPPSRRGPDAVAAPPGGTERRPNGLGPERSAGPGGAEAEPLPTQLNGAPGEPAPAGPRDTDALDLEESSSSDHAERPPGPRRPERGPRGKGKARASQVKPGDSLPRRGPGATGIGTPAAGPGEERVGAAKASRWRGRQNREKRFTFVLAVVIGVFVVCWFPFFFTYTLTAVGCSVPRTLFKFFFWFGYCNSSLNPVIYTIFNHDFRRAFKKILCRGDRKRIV
Assay: Alpha-2A adrenergic receptor agonism measured as ability to inhibit forskolin-stimulated synthesis of cAMP
Measurement Name: EC50 (nM)
# unit: nM | format: bare number

Below are worked cases with known answers.
Molecule	Assay System	Assay Result
CCC[C@H]1C2CCC(C2)[C@H]1NC1=NCCO1 (some centres undefined)	Alpha-2A adrenergic receptor (Homo sapiens)	11
c1ccc(CCC[C@H]2C3CCC(C3)[C@H]2NC2=NCCO2)cc1 (some centres undefined)	Alpha-2A adrenergic receptor (Homo sapiens)	34.7

*Q* Given the entry CCC[C@H]1CCCC[C@@H]1NC1=NCCO1 , report its measured EC50.
*A* 1.62

*Q* Now give it for C(=C\c1ccccc1)/C[C@H]1C2CCC(C2)[C@H]1NC1=NCCO1 (some centres undefined) too.
*A* 70.8
